// provenance: patent US12037324B2

Target: hAT1R (Homo sapiens, UniProt P30556)
Sequence (P30556 whole entry): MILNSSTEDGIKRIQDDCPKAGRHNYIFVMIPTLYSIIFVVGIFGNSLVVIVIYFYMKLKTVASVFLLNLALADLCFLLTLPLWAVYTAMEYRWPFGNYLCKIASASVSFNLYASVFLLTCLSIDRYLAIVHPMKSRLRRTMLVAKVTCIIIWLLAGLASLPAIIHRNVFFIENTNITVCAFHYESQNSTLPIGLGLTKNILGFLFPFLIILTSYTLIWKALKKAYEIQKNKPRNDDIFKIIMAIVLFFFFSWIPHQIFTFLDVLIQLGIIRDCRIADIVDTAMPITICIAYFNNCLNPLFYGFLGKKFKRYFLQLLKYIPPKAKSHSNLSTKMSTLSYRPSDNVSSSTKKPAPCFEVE
Assay: cell-based
Details: agonist mode
Assign labels as follows, please: t for BRET P63 Ymax below 10%; f for BRET P63 Ymax equal to or exceeding 10%.

Look over these answered cases.
compound	discrete-label
CCc1nc2c(C)cc(C)nc2n1Cc1ccc(-c2cc(-c3cc(C(F)F)ccn3)ccc2-c2nn[nH]n2)cc1	f
CCc1nc2c(C)cc(C)nc2n1Cc1ncc(-c2cc(-c3cccc(C)c3)ccc2-c2nnn[nH]2)cn1	f
CCCCC1=NC2(CCOC2)C(=O)N1Cc1ccc(-c2cc(-c3ccccc3O)ccc2-c2nnn[nH]2)cc1 (single isomer, unassigned) [Example 151]	f
CCc1nc2c(C)cc(C)nc2n1Cc1cnc(-c2cc(-c3ccccc3)ccc2-c2nnn[nH]2)cn1	t
CCc1nc2c(C)cc(C)nc2n1Cc1ccc(-c2cc(-c3cccc(C)c3)ccc2C(=O)O)nn1	t
CCOc1nc2cccc(C(=O)O)c2n1Cc1ccc(-c2cc(-c3cc(N(C)C)ccn3)ccc2-c2noc(=O)[nH]2)cc1	f

Task: Lab log: compare recorded BRET P63 Ymax with 10%; is it strictly lower for `CCc1nc2c(C)cc(C)nc2n1Cc1ccc(-c2cc(-c3cccc(C)c3)ccc2-c2nn[nH]n2)cc1F` ?
Output: f
